Attribute: melting point

Consider the following illustrative entries.
* COc1ccc(C(c2ccccc2)C(C)(C(=O)C(C)(C(c2ccccc2)c2ccc(OC)c(OC)c2)N2C(=O)c3ccccc3C2=O)N2C(=O)c3ccccc3C2=O)cc1OC (stereo unspecified) | 159 to 161 °C
* COc1cc(OC)c(/C=C/C(c2ccc(OC)c(NCC(=O)O)c2)S(=O)(=O)C(/C=C/c2c(OC)cc(OC)cc2OC)c2ccc(OC)c(NCC(=O)O)c2)c(OC)c1 (stereo unspecified) | 128 to 131 °C
* C=COC(=O)CCC | -80 °C
* COc1cc(OC)c(/C=C/C(c2ccc(OC)c(NC(=O)CO)c2)S(=O)(=O)C(/C=C/c2c(OC)cc(OC)cc2OC)c2ccc(OC)c(NC(=O)CO)c2)c(OC)c1 (stereo unspecified) | 174 to 176 °C
* C=CCOc1nc(NC(C)(C)CC(C)(C)C)nc(N(CCCCCCN(c2nc(NC(C)(C)CC(C)(C)C)nc(OCC=C)n2)C2CC(C)(C)NC(C)(C)C2)C2CC(C)(C)NC(C)(C)C2)n1 | 210 to 212 °C
* FC(F)(F)c1ccc(Cl)nc1Cl | 6 °C
* CCOC(=O)c1cn(C23CC(C2)C3)c2c(F)c(F)c(F)cc2c1=O | 176 to 178 °C
* CC(C)c1oncc1S(=O)(=O)c1ccc(O)cc1 | 129 to 131 °C

Next up:
Annotate the compound CC(C)OCCOc1ccc(CCCOc2nn(C)cc2CC(=O)O)c(Oc2ncc(C(F)(F)F)cc2Cl)c1 with its measured melting point.
104 °C

----------
Attribute: melting point

* CCOCc1nc(C(C)(C)O)c(C(=O)OCc2oc(=O)oc2C)n1Cc1ccc(-c2ccccc2-c2nnnn2C(c2ccccc2)(c2ccccc2)c2ccccc2)cc1 | 129 to 130 °C
* Cc1ccc2cccc(OCc3c(Cl)ccc(S(=O)(=O)N4CCC[C@H]4C(=O)NC4CCN(C(=O)CN(C=NC(=O)OC(C)(C)C)NC(=O)OC(C)(C)C)CC4)c3Cl)c2n1 | 123 °C
* Cc1cccc(-c2sc(N)nc2-c2ccnc(-c3ccc(CN4CCOCC4)cc3)c2)n1 | 236 °C
* C=C(C)C(=O)Nc1ccc2ncnc(Nc3cccc(Br)c3)c2c1 | 244 to 245 °C
* CCC(C=CC(C)C1CCC2C3CC=C4CC(OC(=O)N(CC(O)COC(c5ccccc5)(c5ccccc5)c5ccccc5)C(C)C)CCC4(C)C3CCC12C)C(C)C (configuration not stated) | 75 to 76 °C

Annotate the molecule CCCCCCCCCCCCCCCC(=O)C(O)C(O)(C(=O)c1cccc(NC(=O)C(CS)Cc2ccccc2)c1)C(O)C(=O)CCCCCCCCCCCCCCC (configuration not stated) with its measured melting point.
66 to 68 °C

----------
Residues, ends and D or L forms follow the SMILES beside them. *: point of attachment. X5 = CCC(=O)OC1(C(=O)C(O)O*)CCC2C3CC(C)C4=CC(=O)C=CC4(C)C3C(O)CC21C; Pentanoyl = CCCCC(=O)*
Parameter: melting point

• CCCCCCCCCCCCCCCCCCOC(=O)c1cc(C(C)(C)C)c(O[Si](C)(C)Oc2c(C(C)(C)C)cc(C(=O)OCCCCCCCCCCCCCCCCCC)cc2C(C)(C)C)c(C(C)(C)C)c1 = 68.5 to 69.5 °C
• CC(=O)OCC1OC(NC(=O)C2=CC=C(Cl)C(N)([N+](=O)[O-])C2)C(OC(C)=O)C(OC(C)=O)C1OC1OC(COC(C)=O)C(OC(C)=O)C(OC(C)=O)C1OC(C)=O (configuration not stated) = 115 to 119 °C
• CCCCC(=O)NC(C)C(=O)NC(C)C(=O)N1CCCC1C(=O)NC(C(=O)OC(O)C(=O)C1(OC(=O)CC)CCC2C3CC(C)C4=CC(=O)C=CC4(C)C3C(O)CC21C)C(C)C (configuration not stated) (Pentanoyl-AAPV-X5; configuration not given here) = 142 °C

Annotate the compound N=S(=O)(c1ccccc1)c1cccnc1 (configuration not stated) with its measured melting point.
109 °C

Annotate the compound CC(=O)c1cc2cc(Br)ccc2oc1=O with its measured melting point.
227 °C
